# system tested: Caspase-1 (Homo sapiens)
# assay text: Second-order inhibition rate of caspase-1 was determined by progress curve method
Examples of molecules with documented k2 follow.
result type: k2 (M⁻¹ s⁻¹)

[[record]]
molecule = "CC(C)[C@H](NC(=O)CCc1ccccc1)C(=O)N[C@@H](C)C(=O)NN(CC(=O)O)C(=O)[C@@H]1O[C@H]1C(=O)N[C@@H](C)C(=O)NCc1ccccc1"
system_tested = "Caspase-1 (Homo sapiens)"
assay_result = 270

[[record]]
molecule = "CCOC(=O)[C@@H]1O[C@H]1C(=O)N(CC(=O)O)NC(=O)[C@@H](NC(=O)C(CCC(=O)O)NC(=O)[C@H](CC(C)C)NC(=O)OCc1ccccc1)[C@@H](C)O (some centres not stated)"
system_tested = "Caspase-1 (Homo sapiens)"
assay_result = 19600

[[record]]
molecule = "CC(C)[C@H](NC(=O)CCc1ccccc1)C(=O)N[C@@H](C)C(=O)NN(CC(=O)O)C(=O)[C@@H]1O[C@H]1C(=O)NCC(O)c1ccccc1 (some centres not stated)"
system_tested = "Caspase-1 (Homo sapiens)"
assay_result = 400

[[record]]
molecule = "CC(C)[C@H](NC(=O)CCc1ccccc1)C(=O)N[C@@H](C)C(=O)NN(CC(=O)O)C(=O)[C@H]1O[C@@H]1C(=O)OCc1ccccc1 (stereo in doubt; 23d(S,S))"
system_tested = "Caspase-1 (Homo sapiens)"
assay_result = 52100

[[record]]
molecule = "CCOC(=O)[C@H]1O[C@@H]1C(=O)N(CC(=O)O)NC(=O)[C@@H](NC(=O)[C@H](CCC(=O)O)NC(=O)[C@H](CC(=O)O)NC(=O)OCc1ccccc1)C(C)C"
system_tested = "Caspase-1 (Homo sapiens)"
assay_result = 11800

[[record]]
molecule = "CC(C)[C@H](NC(=O)[C@H](CCC(=O)O)NC(=O)OCc1ccccc1)C(=O)NN(CC(=O)O)C(=O)[C@H]1O[C@@H]1C(=O)NCCc1ccccc1"
system_tested = "Caspase-1 (Homo sapiens)"
assay_result = 41100

[[record]]
molecule = "CC(C)[C@H](NC(=O)CCc1ccccc1)C(=O)N[C@@H](C)C(=O)NN(CC(=O)O)C(=O)[C@@H]1O[C@H]1C(=O)NCCc1ccccc1"
system_tested = "Caspase-1 (Homo sapiens)"
assay_result = 950

[[record]]
molecule = "CC(C)[C@H](NC(=O)CCc1ccccc1)C(=O)N[C@@H](C)C(=O)NN(CC(=O)O)C(=O)[C@H]1O[C@@H]1C(=O)N[C@@H](Cc1ccc(O)cc1)C(N)=O"
system_tested = "Caspase-1 (Homo sapiens)"
assay_result = 3250

[[record]]
molecule = "CC(C)[C@H](NC(=O)CCc1ccccc1)C(=O)N[C@@H](C)C(=O)NN(CC(=O)O)C(=O)[C@H]1O[C@@H]1C(=O)NCc1ccccc1"
system_tested = "Caspase-1 (Homo sapiens)"
assay_result = 65900

[[record]]
molecule = "CCOC(=O)[C@@H]1O[C@H]1C(=O)N(CC(=O)O)NC(=O)[C@H](C)NC(=O)[C@@H](NC(=O)CCc1ccccc1)C(C)C"
system_tested = "Caspase-1 (Homo sapiens)"
assay_result = 6290

[[record]]
molecule = "CCOC(=O)[C@@H]1O[C@H]1C(=O)N(CC(=O)O)NC(=O)[C@@H](NC(=O)[C@H](CCC(=O)O)NC(=O)[C@@H](NC(=O)OCc1ccccc1)[C@@H](C)CC)[C@@H](C)O"
system_tested = "Caspase-1 (Homo sapiens)"
assay_result = 13300

[[record]]
molecule = "CC(C)C[C@H](NC(=O)OCc1ccccc1)C(=O)NC(CCC(=O)O)C(=O)N[C@H](C(=O)NN(CC(=O)O)C(=O)[C@H]1O[C@@H]1C(=O)OCc1ccccc1)[C@@H](C)O (some centres not stated)"
system_tested = "Caspase-1 (Homo sapiens)"
assay_result = 43500

